Test system: A549
assay overview: Antiproliferative activity against human A549 cells assessed as growth inhibition after 48 hrs by SRB assay
Assay type: functional
experimental conditions: A549, 48 h
property name: GI50

// below: answered compounds
entry smiles: O=C(CCC(F)(F)C(F)(F)C(F)(F)C(F)(F)C(F)(F)C(F)(F)C(F)(F)C(F)(F)F)NCCCCCCCCCN[C@@H]1[C@H](O)[C@@H](O)[C@H](O)[C@H]2COC(=O)N21
property name: GI50
value reported: > 100 µM
--
entry smiles: O=C(CCC(F)(F)C(F)(F)C(F)(F)C(F)(F)F)NCCCCCCCCCN[C@@H]1[C@H](O)[C@@H](O)[C@H](O)[C@H]2COC(=O)N21
property name: GI50
value reported: > 100 µM

Note: attention shifts to another entry.
Incoming: Give GI50 for O=C(CCC(F)(F)C(F)(F)C(F)(F)C(F)(F)F)NCCCCCCCCCN[C@@H]1[C@H](O)[C@@H](O)[C@@H](O)[C@H]2COC(=O)N21
Outgoing: 76 µM

---

assay overview: Critical aggregation concentration of compound by spectrofluorophotometric method
Assay type: physicochemical
CAC less than 10 µM is TRUE; CAC greater than or equal to 10 µM is FALSE.

entry smiles: O=C(CCC(F)(F)C(F)(F)C(F)(F)C(F)(F)F)NCCCCCCCCCN[C@@H]1[C@H](O)[C@@H](O)[C@H](O)[C@H]2COC(=O)N21
group label: FALSE
//
entry smiles: O=C(CCC(F)(F)C(F)(F)C(F)(F)C(F)(F)C(F)(F)C(F)(F)F)NCCCCCCCCCN[C@@H]1[C@H](O)[C@@H](O)[C@H](O)[C@H]2COC(=O)N21
group label: FALSE
//
entry smiles: O=C(CCC(F)(F)C(F)(F)C(F)(F)C(F)(F)F)NCCCCCCCCCN[C@@H]1[C@H](O)[C@@H](O)[C@@H](O)[C@H]2COC(=O)N21
group label: FALSE
//
entry smiles: O=C(CCC(F)(F)C(F)(F)C(F)(F)C(F)(F)C(F)(F)C(F)(F)F)NCCCCCCCCCN[C@@H]1[C@H](O)[C@@H](O)[C@@H](O)[C@H]2COC(=O)N21
group label: FALSE
//
entry smiles: O=C(CCC(F)(F)C(F)(F)C(F)(F)C(F)(F)C(F)(F)C(F)(F)C(F)(F)C(F)(F)F)NCCCCCCCCCN[C@@H]1[C@H](O)[C@@H](O)[C@H](O)[C@H]2COC(=O)N21
group label: TRUE

Incoming: Lab note: confirm whether the reported CAC for this molecule is below 10 µM, equality not counting. molecule: O=C(CCC(F)(F)C(F)(F)C(F)(F)C(F)(F)C(F)(F)C(F)(F)C(F)(F)C(F)(F)F)NCCCCCCCCCN[C@@H]1[C@H](O)[C@@H](O)[C@@H](O)[C@H]2COC(=O)N21
Outgoing: FALSE

---

Tested on: A549
assay overview: Antiproliferative activity against human A549 cells assessed as growth inhibition after 48 hrs by SRB assay
Type: functional
experimental conditions: A549, 48 h
Measured GI50 of individual entries
Please reply with the bare figure in µM and do not write the unit itself.

entry smiles: O=C(CCC(F)(F)C(F)(F)C(F)(F)C(F)(F)C(F)(F)C(F)(F)F)NCCCCCCCCCN[C@@H]1[C@H](O)[C@@H](O)[C@H](O)[C@H]2COC(=O)N21
GI50 [µM]: 12

Note: attention shifts to another entry.
Incoming: Give GI50 for O=C(CCC(F)(F)C(F)(F)C(F)(F)C(F)(F)C(F)(F)C(F)(F)F)NCCCCCCCCCN[C@@H]1[C@H](O)[C@@H](O)[C@@H](O)[C@H]2COC(=O)N21
Outgoing: 17

// data source = ChEMBL document CHEMBL4359891
